Test system: COV318
PROCEDURE DETAILS: drug sensitivity score (DSS) from 5-point dose-response viability curve (DSS (area-under-curve based score)); higher = more sensitive (stronger growth inhibition or killing); extreme values may be limits of the assay
ASSAY SETUP: exposure time: 72 h; concentration range: 5 concentrations over 10,000-fold range
Rule: drug sensitivity score of 0.5 or more gives yes (1); anything lower gives no (0).

Examples from the recorded data:
INSERT INTO assay_data (structure_smiles_string, class_assignment) VALUES
  ('N#CC1(c2ccc(NC(=O)c3cccnc3NCc3ccncc3)cc2)CCCC1', 'no (0)'),
  ('CC(C)C[C@H](NC(=O)[C@@H](COC(C)(C)C)NC(=O)[C@H](Cc1ccc(O)cc1)NC(=O)[C@H](CO)NC(=O)[C@H](Cc1c[nH]c2ccccc12)NC(=O)[C@H](Cc1cnc[nH]1)NC(=O)[C@@H]1CCC(=O)N1)C(=O)N[C@@H](CCCNC(=N)N)C(=O)N1CCC[C@H]1C(=O)NNC(N)=O', 'no (0)'),
  ('CC/C(=C(\c1ccccc1)c1ccc(OCCN(C)C)cc1)c1ccccc1', 'yes (1)'),
  ('Cc1cnc(Nc2ccc(OCCN3CCCC3)cc2)nc1Nc1cccc(S(=O)(=O)NC(C)(C)C)c1', 'yes (1)');

Let's switch to this molecule now.
State whether the measured drug sensitivity score reaches 0.5, counting equality as reaching it, for `CO[C@H]1C(=O)[C@]2(C)[C@@H](OC)C[C@H]3OC[C@@]3(OC(C)=O)[C@H]2[C@H](OC(=O)c2ccccc2)[C@]2(O)C[C@H](OC(=O)[C@H](O)[C@@H](NC(=O)OC(C)(C)C)c3ccccc3)C(C)=C1C2(C)C`
yes (1)
